Values were extracted from the supplement of paper PMC10201428.

Some variants, each annotated with its measured relative integration efficiency (log2).
B1: library; a variant is named by its letters at N, in order (parent)
chain: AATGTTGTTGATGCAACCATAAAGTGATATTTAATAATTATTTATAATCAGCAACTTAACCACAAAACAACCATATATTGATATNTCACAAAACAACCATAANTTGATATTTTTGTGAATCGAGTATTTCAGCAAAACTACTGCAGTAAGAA

Variants of: B1
TEST_SUMMARY: relative integration efficiency (T-LR orientation) vs wild-type transposon end (log2 (normalized fold change)); transposon end mutated: left end; higher = more efficient transposition
APPLIED_CONDITIONS: with VchCAST RNA-guided transposition machinery (E. coli BL21(DE3) host, lacZ target)
// return a plain number; no unit text

// below: answered variants
CG A16T A70T A96T = -1.37
CG C49G = 0.811
CG A118C A119C T120G C121A G122T A123C G124T T125G = -0.0272
TA T76A T78A T84A C87A A96C T112G T113C = -0.207
CG T43G = -0.00931

Give relative integration efficiency (log2) for CT T100G A101C A102C -1.43

Please report the measured relative integration efficiency (log2) for CG A53T A54T C55G T56A -0.367

Retrieve relative integration efficiency (log2) measured for CG A81T and print it. -0.4

// Input: TG A16C G24T T32G A33C A70C T76A T84A C87A . Output its relative integration efficiency (log2) only. -0.64

Entry CG A1G needs its relative integration efficiency (log2) filled in; supply it. 0.115
